Hello, the source for this data is ChEMBL document CHEMBL5137093, in case you need it.

Test: Ratio of AUC of Atazanavir in Sprague-Dawley rat at 3 ml/kg,po measured upto 24 hrs by UPLC-MS/MS analysis
Type: ADME
Conditions: in vivo
READOUT_LABEL: Ratio

COC(=O)N[C@H](C(=O)N[C@@H](Cc1ccccc1)[C@H](CN(Cc1ccc(-c2ccccn2)cc1)NC(=O)[C@@H](NC(=O)OC)C(C)(C)C)OC(=O)OC(OC(=O)[C@@H](NC(=O)[C@H](N)C(C)C)C(C)C)C(C)C)C(C)(C)C (stereo in doubt; 6h)
14.4
CN[C@H](C(=O)OC(OC(=O)O[C@@H](CN(Cc1ccc(-c2ccccn2)cc1)NC(=O)[C@@H](NC(=O)OC)C(C)(C)C)[C@H](Cc1ccccc1)NC(=O)[C@@H](NC(=O)OC)C(C)(C)C)C(C)C)C(C)C (stereo in doubt; 5f)
0.59
COC(=O)N[C@H](C(=O)N[C@@H](Cc1ccccc1)[C@H](CN(Cc1ccc(-c2ccccn2)cc1)NC(=O)[C@@H](NC(=O)OC)C(C)(C)C)OC(=O)OC(OC(=O)[C@H](C(C)C)N(C)C)C(C)C)C(C)(C)C (stereo in doubt; 5g)
0.59
COC(=O)N[C@H](C(=O)N[C@@H](Cc1ccccc1)[C@H](CN(Cc1ccc(-c2ccccn2)cc1)NC(=O)[C@@H](NC(=O)OC)C(C)(C)C)OC(=O)OC(OC(=O)[C@@H](N)C(C)C)C(C)C)C(C)(C)C (stereo in doubt; 3r)
0
COC(=O)N[C@H](C(=O)N[C@@H](Cc1ccccc1)[C@H](CN(Cc1ccc(-c2ccccn2)cc1)NC(=O)[C@@H](NC(=O)OC)C(C)(C)C)OC(=O)OC(OC(=O)[C@H](C)N)C(C)C)C(C)(C)C (stereo in doubt; 3p)
0.06
COC(=O)N[C@H](C(=O)N[C@@H](Cc1ccccc1)[C@H](CN(Cc1ccc(-c2ccccn2)cc1)NC(=O)[C@@H](NC(=O)OC)C(C)(C)C)OC(=O)OC(OC(=O)[C@H](N)C(C)C)C(C)C)C(C)(C)C (stereo in doubt; 5i)
0.01

I = COC(=O)N[C@H](C(=O)N[C@@H](Cc1ccccc1)[C@H](CN(Cc1ccc(-c2ccccn2)cc1)NC(=O)[C@@H](NC(=O)OC)C(C)(C)C)OC(=O)OC(OC(=O)CCN)C(C)C)C(C)(C)C (stereo in doubt; 3z)
II = COC(=O)N[C@H](C(=O)N[C@@H](Cc1ccccc1)[C@H](CN(Cc1ccc(-c2ccccn2)cc1)NC(=O)[C@@H](NC(=O)OC)C(C)(C)C)OC(=O)OC(OC(=O)[C@@H](N)C(C)C)C(C)(C)C)C(C)(C)C (mixture of isomers)
Sort I and II by Ratio descending and give the first. # answer = label of selected item
II
